Numbers sourced from paper PMC8218592.

So I've got a bunch of compounds here, and I need their IC50 values.

Tested on IRAP (Mus musculus, UniProt Q8C129): "CC(=O)N1CCN(C(=O)C2(NC(=O)Nc3ccc(Cl)cc3)CCCCC2)CC1" . Observed IC50: > 200 µM

Tested on IRAP (Mus musculus, UniProt Q8C129): "CC(=O)N1CCN(C(=O)C2(NC(=O)Nc3ccc(C)cc3)CCCCC2)CC1" . Observed IC50: > 200 µM

Tested on IRAP (Mus musculus, UniProt Q8C129): "CC(=O)N1CCN(C(=O)C2(NC(=O)Nc3ccccc3)CCCCC2)CC1" . Observed IC50: > 200 µM

Tested on IRAP (Mus musculus, UniProt Q8C129): "CC(=O)N1CCN(C(=O)C(C)(C)NC(=O)Nc2ccc(C)cc2)CC1" . Observed IC50: > 200 µM

Tested on IRAP (Mus musculus, UniProt Q8C129): "CC(=O)N1CCN(C(=O)C2(NC(=O)Nc3ccc(F)cc3)CCCCC2)CC1" . Observed IC50: > 200 µM

Tested on IRAP (Mus musculus, UniProt Q8C129): "CC(=O)N1CCN(C(=O)C2(NC(=O)Nc3ccc(C)cc3)CC2)CC1" . Observed IC50: > 200 µM

Tested on IRAP (Mus musculus, UniProt Q8C129): "Cc1ccc(NC(=O)NC2(C(=O)N3CCN(c4ccccc4)CC3)CCCCC2)cc1" . Observed IC50: > 200 µM

Tested on IRAP (Mus musculus, UniProt Q8C129): "COc1ccc(C(=O)O)cc1S(=O)(=O)Nc1cc(C(F)(F)F)ccc1N1CCCCC1" . Observed IC50: > 200 µM

Tested on IRAP (Mus musculus, UniProt Q8C129): "COc1ccc(NC(=O)NC2(C(=O)N3CCN(C(C)=O)CC3)CCCCC2)cc1" . Observed IC50: > 200 µM

Tested on IRAP (Mus musculus, UniProt Q8C129): "Cc1ccc(NC(=O)NC2(C(=O)N3CCOCC3)CCCCC2)cc1" . Observed IC50: > 200 µM
